Hi there, I'd appreciate the recorded % blocking of Gal3-TREM2 binding for every entry that follows.
- system-tested: T1, human Galectin-3 (Gal3), full-length recombinant (human, UniProt P17931 2-250)
- T1 construct: treated here as one molecule; also called hGAL3; hGal3
- T1 sequence (P17931 2-250 limits assumed): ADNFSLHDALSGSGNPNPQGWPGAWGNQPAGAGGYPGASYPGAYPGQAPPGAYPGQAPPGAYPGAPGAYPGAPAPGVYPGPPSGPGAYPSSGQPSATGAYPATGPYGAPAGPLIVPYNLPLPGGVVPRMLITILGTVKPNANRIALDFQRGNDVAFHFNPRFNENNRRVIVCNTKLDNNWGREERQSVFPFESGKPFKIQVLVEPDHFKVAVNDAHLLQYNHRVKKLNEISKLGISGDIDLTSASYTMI
- assay-explanation: blocking ELISA, Gal3 coated, TREM2-His

What measured % blocking of Gal3-TREM2 binding goes with F846C.1B2 (antibody, human IgG4 S228P, kappa, V domains shown, also called 846.1B2) VH: QIQLVQSGPELKKPGETVKISCKASGYTFTNYGMNWVKQAPGKGLKWMGWINTYTGEPSYADDFKGRFAFSLETSASTAYLQINNLKNEDMATYFCARWGGYAGDYYAMDFWGQGTSVTVSS VL: NIWLTQSPSSLAVSAGEMVTMTCKSSQSVLYSSNQKNYLAWYQQKPGQSPKLLIYWASTRESGVPDRFTGSGSGTDFSLTISSVQAEDLAVYYCHQYLSSLTFGAGTKLELKR ?
> 90%

What measured % blocking of Gal3-TREM2 binding goes with F849C.8D10 (antibody, human IgG4 S228P, kappa, V domains shown, also called 849.8D10) VH: QVQLQQTGAELVKPGASVKLSCKASGYTFTSYWINWVKQRPGQGLEWIGNIYPGSSSIYYSEKFKSKATLTVDTSSSTAYMQLSSLTSDDSAVYYCARWGYWGQGTTLTVSS VL: DVLMTQTPLSLPVSLGDQASISCRSSQDIVHSSGNTYLEWYLQKPGQSLKLLIYKVSNRFSGVPDRFSASGSGTDFTLKISRVEAEDLGVYYCFQGSHVPPTFGSGTKLEIKR ?
> 90%

From: patent US20250145722A1
